Target sequence: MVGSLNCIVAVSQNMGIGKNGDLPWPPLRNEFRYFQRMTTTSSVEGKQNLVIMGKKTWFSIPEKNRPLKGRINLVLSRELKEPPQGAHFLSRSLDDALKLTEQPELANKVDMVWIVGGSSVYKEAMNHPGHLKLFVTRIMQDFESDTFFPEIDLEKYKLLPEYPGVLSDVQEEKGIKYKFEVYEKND
pIC50: −log10 of the molar value.
reported endpoint: pIC50

Recorded pIC50 of CCc1nc(N)nc(N)c1C#CCc1cc(OC)c(OC)c(OC)c1 [Compound 35] , please. > 7.00
